Target: human CD33 A182S (human, UniProt P20138 18-364)
Sequence (P20138 18-364 A182S limits assumed): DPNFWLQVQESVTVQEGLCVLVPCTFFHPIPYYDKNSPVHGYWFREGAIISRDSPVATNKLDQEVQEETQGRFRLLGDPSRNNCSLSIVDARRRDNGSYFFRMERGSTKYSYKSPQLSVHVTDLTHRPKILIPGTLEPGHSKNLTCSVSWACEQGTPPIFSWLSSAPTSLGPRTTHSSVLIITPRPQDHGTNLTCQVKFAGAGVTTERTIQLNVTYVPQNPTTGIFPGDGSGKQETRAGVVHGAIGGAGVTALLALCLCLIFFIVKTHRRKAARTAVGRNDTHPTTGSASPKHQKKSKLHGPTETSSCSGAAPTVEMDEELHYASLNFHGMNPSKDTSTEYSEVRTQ
Experiment: alanine scan, flow cytometry, HEK293-T;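 note: antibody binding to each alanine-substituted CD33 mutant expressed transiently in HEK293-T, read as fluorescence minus background, mean of duplicates, relative to wild-type CD33 set as 100%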
# Mean % WT Binding annotations
Measured endpoint: Mean % WT Binding (%)

{"columns": ["Binder", "Quantity unit", "Measured"],
 "data": [
  ["Refmab #2 (antibody, V domains shown, In the alanine scan antibodies were used as IgG or Fab) VH: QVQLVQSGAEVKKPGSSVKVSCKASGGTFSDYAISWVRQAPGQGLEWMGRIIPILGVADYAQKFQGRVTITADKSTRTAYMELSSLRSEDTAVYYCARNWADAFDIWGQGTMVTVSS VL: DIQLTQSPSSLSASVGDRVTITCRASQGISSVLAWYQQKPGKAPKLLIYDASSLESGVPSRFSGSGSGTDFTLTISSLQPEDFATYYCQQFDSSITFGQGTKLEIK", "%", 115],
  ["Refmab #3 (antibody, V domains shown, In the alanine scan antibodies were used as IgG or Fab) VH: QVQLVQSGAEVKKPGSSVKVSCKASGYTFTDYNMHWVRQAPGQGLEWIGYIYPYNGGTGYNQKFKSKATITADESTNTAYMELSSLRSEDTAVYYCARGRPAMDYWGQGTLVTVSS VL: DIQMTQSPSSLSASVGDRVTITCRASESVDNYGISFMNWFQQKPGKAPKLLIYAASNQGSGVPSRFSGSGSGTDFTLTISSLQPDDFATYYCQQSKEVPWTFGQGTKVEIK", "%", 127],
  ["Refmab #1 (antibody, V domains shown, In the alanine scan antibodies were used as IgG or Fab; also called hP67.6) VH: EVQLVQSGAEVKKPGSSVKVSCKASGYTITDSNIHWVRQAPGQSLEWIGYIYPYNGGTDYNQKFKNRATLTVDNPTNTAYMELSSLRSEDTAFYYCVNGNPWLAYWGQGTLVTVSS VL: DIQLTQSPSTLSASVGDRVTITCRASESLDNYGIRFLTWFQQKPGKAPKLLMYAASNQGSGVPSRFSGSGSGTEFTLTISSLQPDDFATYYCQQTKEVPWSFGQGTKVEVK", "%", 85.8],
  ["Refmab #4 (antibody, V domains shown, In the alanine scan antibodies were used as IgG or Fab) VH: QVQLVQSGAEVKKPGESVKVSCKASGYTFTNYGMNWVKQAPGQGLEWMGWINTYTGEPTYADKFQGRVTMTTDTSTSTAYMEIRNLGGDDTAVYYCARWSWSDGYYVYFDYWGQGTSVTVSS VL: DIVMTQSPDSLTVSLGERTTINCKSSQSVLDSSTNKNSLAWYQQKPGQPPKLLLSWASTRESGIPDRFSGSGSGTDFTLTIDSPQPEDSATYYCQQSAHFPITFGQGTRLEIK", "%", 108]
]}
